Target: BRAF D594G (Homo sapiens, UniProt P15056, D594G)
Construct: Horizon Discovery (HCT-116 BRAF−/− cells); host or cells: HCT-116 BRAF−/− cells, clone 63, lentiviral transduction
Sequence (P15056 whole entry D594G): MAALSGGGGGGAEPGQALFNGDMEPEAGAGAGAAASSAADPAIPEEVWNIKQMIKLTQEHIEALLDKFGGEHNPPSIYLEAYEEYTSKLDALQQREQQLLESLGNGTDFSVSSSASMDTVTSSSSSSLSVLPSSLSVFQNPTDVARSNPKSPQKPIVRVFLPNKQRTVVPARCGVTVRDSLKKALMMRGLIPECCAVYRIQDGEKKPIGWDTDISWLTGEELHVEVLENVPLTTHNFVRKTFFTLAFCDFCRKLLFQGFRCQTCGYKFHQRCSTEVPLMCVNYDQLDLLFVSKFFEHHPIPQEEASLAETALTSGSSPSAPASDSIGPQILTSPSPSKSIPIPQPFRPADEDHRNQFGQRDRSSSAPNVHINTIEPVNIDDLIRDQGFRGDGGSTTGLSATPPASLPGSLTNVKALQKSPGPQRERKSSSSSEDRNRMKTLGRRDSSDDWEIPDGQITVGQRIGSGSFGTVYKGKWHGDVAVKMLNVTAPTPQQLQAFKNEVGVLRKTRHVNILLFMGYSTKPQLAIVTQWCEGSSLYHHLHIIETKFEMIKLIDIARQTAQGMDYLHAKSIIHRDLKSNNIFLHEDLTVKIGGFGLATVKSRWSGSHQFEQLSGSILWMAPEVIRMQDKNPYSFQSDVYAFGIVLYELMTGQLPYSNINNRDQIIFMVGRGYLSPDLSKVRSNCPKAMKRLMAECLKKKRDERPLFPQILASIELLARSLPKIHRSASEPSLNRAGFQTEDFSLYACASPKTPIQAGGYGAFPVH
Test: BRAF HiBiT degradation assay, C-terminal HiBiT-tagged BRAF D594G overexpressed in HCT-116 BRAF−/− cells (clone 63), Nano-Glo HiBiT Lytic assay
Assay type: cell-based
Conditions: BRAF D594G; DC50 at 50%: fitted conc. at Y=50
PROPERTY_MEASURED: DC50

Query :: Recall and state the measured DC50 for CCCS(=O)(=O)Nc1cccc(-c2nc(C(C)(C)C)sc2-c2ccnc(Nc3cccc(OC4CCN(C(=O)[C@H]5CC[C@H](Oc6ccc(C7CCC(=O)NC7=O)cn6)CC5)CC4)c3)n2)c1F (mixture of isomers) [Compound 97] .
Result :: > 500 nM

***
Query :: Recall and state the measured DC50 for CCCS(=O)(=O)Nc1cccc(-c2nc(C3CCN(C(=O)C4CCN(CC5CCN(c6cccc7c6n(C)c(=O)n7C6CCC(=O)NC6=O)CC5)CC4)CC3)sc2-c2ccnc(N)n2)c1F (racemic) [Compound 195] .
Result :: < 10 nM

Query :: Recall and state the measured DC50 for CCCS(=O)(=O)Nc1cccc(-c2cn(-c3ccc(N4CCN(CC5CCN(c6ccc([C@@H]7CCC(=O)NC7=O)cc6)CC5)CC4)nc3)nc2-c2ccncc2)c1F [Compound 4] .
Result :: > 500 nM

Query :: Recall and state the measured DC50 for CCN(C)S(=O)(=O)Nc1cccc(-c2nc(C(C)(C)C)sc2-c2ccnc(Nc3ccc(N4CCN(C(=O)CN5CCc6cc(C7CCC(=O)NC7=O)ccc6C5)CC4)c(F)c3)n2)c1F (racemic) [Compound 28] .
Result :: 10 to 50 nM
